# Measurement notes: Human HepG2 cell viability assay in 384 well format
# Assay type: toxicity, cell-based
# Design: dose 125 nL, time 70.5 hour; concentration not given beside the values
# Experimental context: HepG2 cells, read-out: Inhibition
Listing of entries alongside the reported cytotoxicity at 70.5 h.
Measured parameter: cytotoxicity at 70.5 h (%)

- Compound: "Cc1ccc(S(=O)(=O)Nc2ccc(-n3ccnc3C)nc2)cc1N(C)C"
  Measured parameter: "cytotoxicity at 70.5 h"
  Endpoint unit: "%"
  Obs value: -2.22
- Compound: "CN(C(=O)c1cc(Cl)c[nH]1)C1CCN(c2ccccn2)CC1"
  Measured parameter: "cytotoxicity at 70.5 h"
  Endpoint unit: "%"
  Obs value: 8.18
- Compound: "O=C1CCC(C(=O)NCCOc2ccccc2-c2ccccc2)CN1 (stereo unspecified)"
  Measured parameter: "cytotoxicity at 70.5 h"
  Endpoint unit: "%"
  Obs value: -13.3
- Compound: "c1cnc(N2CCC(c3csc(Nc4cnccn4)n3)CC2)nc1"
  Measured parameter: "cytotoxicity at 70.5 h"
  Endpoint unit: "%"
  Obs value: 12.4
- Compound: "Cc1csc(N2CCN(C(=O)Cc3ccsc3)CC2)n1"
  Measured parameter: "cytotoxicity at 70.5 h"
  Endpoint unit: "%"
  Obs value: 31.2
- Compound: "CCCN1CC2(CCN(C)CC2)CC1C(=O)NCc1cc(C)nn1C (stereo unspecified)"
  Measured parameter: "cytotoxicity at 70.5 h"
  Endpoint unit: "%"
  Obs value: -12.4
- Compound: "COC(=O)c1ccc(OCC(=O)N(C)Cc2ccsc2)c(OC)c1"
  Measured parameter: "cytotoxicity at 70.5 h"
  Endpoint unit: "%"
  Obs value: -5.54
- Compound: "Cc1nc(N)nc(C)c1CC(=O)N1CCCCC1c1cccc(F)c1 (stereo unspecified)"
  Measured parameter: "cytotoxicity at 70.5 h"
  Endpoint unit: "%"
  Obs value: -8.87
- Compound: "CC(=O)NCCNC(=O)CN1CCCC(Cn2cncn2)C1 (stereo unspecified)"
  Measured parameter: "cytotoxicity at 70.5 h"
  Endpoint unit: "%"
  Obs value: -4.84
- Compound: "O=C(c1cccnc1)N1C[C@@H]2CC[C@H](C1)N(Cc1ccc(F)cc1Cl)C2"
  Measured parameter: "cytotoxicity at 70.5 h"
  Endpoint unit: "%"
  Obs value: 2.53
- Compound: "O=C(CCN1CCc2ccccc21)N1CC(C(=O)N2CCOCC2)C1"
  Measured parameter: "cytotoxicity at 70.5 h"
  Endpoint unit: "%"
  Obs value: -5.25
